- experimental target: human DGAT2 (hDGAT2) (Homo sapiens, UniProt Q96PD7)
- Construct: made in house; host or cells: Sf-9 insect cells (baculovirus), membrane fraction
- Sequence (Q96PD7 1-388): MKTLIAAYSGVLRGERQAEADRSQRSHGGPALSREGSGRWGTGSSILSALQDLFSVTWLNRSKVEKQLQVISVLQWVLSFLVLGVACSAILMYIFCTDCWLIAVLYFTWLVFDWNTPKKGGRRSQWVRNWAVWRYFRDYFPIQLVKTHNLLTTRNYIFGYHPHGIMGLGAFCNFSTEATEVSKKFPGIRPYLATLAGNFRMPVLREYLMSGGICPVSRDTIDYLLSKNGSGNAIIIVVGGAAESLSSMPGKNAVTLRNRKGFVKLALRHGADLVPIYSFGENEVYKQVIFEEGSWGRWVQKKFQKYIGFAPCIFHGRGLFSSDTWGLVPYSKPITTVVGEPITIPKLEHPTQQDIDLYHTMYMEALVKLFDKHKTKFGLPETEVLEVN
- measurement protocol: DGAT2 Enzymatic Activity Assay
- Assay type: biochemical
- experimental context: membrane prep of Sf-9 cells expressing hDGAT2; 25 μM diolein, 5 μM 13C oleoyl-CoA; 13C18-triolein by LC/MS/MS; read-out: Human DGAT2 IC50
quantity name: IC50 (nM)
The reply should contain only the number, in nM.

Solved cases (3 shown):
CC(C)n1c(=O)n(-c2cccc(OC(F)F)c2)c2c(F)cc(C(=O)NC3(C)CS(=O)(=O)C3)cc21    12
CCOc1cc(-n2c(=O)n(C(C)C)c3cc(C(=O)NC4(C)CCS(=O)(=O)CC4)ccc32)c(F)cn1    6.7
CC(C)n1c(=O)n(-c2cc(OC(F)F)ccc2F)c2ccc(C(=O)N[C@@]3(C)CCS(=O)(=O)C3)cc21    6.3

Let us move to another entry and its IC50.
# input State, in one line, measured IC50 of "CC(C)n1c(=O)n(-c2cccc(OC3CC3)c2)c2ccc(C(=O)NC3(C)CS(=O)(=O)C3)cc21"
# output 15

====

- experimental target: human DGAT2 (hDGAT2) (Homo sapiens, UniProt Q96PD7)
- Construct: made in house; host or cells: Sf-9 insect cells (baculovirus), membrane fraction
- Sequence (Q96PD7 1-388): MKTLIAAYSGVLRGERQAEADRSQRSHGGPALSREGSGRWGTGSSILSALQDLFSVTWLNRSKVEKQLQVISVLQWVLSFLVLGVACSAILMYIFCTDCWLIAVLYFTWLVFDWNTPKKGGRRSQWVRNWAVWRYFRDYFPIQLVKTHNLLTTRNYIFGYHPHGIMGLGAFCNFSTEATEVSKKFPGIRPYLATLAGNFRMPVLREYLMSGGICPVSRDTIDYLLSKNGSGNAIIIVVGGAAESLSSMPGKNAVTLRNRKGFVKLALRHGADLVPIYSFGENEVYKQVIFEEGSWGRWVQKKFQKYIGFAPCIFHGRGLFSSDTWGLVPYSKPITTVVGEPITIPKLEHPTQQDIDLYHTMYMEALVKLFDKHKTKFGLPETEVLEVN
- measurement protocol: DGAT2 Enzymatic Activity Assay
- Assay type: biochemical
- experimental context: membrane prep of Sf-9 cells expressing hDGAT2; 25 μM diolein, 5 μM 13C oleoyl-CoA; 13C18-triolein by LC/MS/MS; read-out: DGAT2 IC50
quantity name: IC50

Solved cases (2 shown):
Cc1nc2c(-n3c(=O)n(C(C)C)c4cc(C(=O)NC5(C)CS(=O)(=O)C5)ccc43)cccc2o1    > 10 µM
CC(n1c(=O)n(-c2cc(OCC(F)F)ncc2F)c2ccc(C(=O)NC3(C)CCS(=O)(=O)CC3)cc21)C(C)(C)O (single isomer, unassigned) [Example 72b]    0.0066 µM

Let us move to another entry and its IC50.
# input Print human DGAT2 (hDGAT2) (Homo sapiens, UniProt Q96PD7) IC50 for CC(C)n1c(=O)n(-c2cccc(OC(F)F)c2)c2ccc(C(=O)NC(C)C(C)(C)O)cc21 (stereo not drawn) .
# output > 10 µM
